The measured values listed here are drawn from patent US20250011448A1.

Biological target: T1, human TNFR2 expressed on cells (Expi293 cells stably expressing huTNFR2) (human, UniProt P20333 23-461)
T1 construct: whole, on cells; Also used here as the target of the Treg assay (native TNFR2 on human primary Treg cells); also called huTNFR2 expressed cells; Expi293-TNFR2 cells
T1 sequence (looked up): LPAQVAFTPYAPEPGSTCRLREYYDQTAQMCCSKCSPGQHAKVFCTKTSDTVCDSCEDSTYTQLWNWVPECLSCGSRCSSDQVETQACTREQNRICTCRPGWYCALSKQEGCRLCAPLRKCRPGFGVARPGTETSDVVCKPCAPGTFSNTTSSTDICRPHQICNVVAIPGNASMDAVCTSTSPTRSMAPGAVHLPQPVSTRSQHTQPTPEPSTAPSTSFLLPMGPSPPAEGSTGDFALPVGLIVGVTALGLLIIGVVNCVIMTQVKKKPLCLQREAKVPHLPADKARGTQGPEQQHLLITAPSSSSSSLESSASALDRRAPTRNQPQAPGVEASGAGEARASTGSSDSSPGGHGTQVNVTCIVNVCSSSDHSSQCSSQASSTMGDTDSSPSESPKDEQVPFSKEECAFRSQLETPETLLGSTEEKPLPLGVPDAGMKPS
Experiment: flow cytometry: inhibition of binding of 10 nM Alexa Fluor 647 human TNFα to Expi293 cells expressing huTNFR2

- binder: "85G8.4 chimeric anti-TNFR2 antibody (antibody, V domains shown, Chimeric: mouse variable domains with human constant regions, made as recombinant IgG1) VH: EVQLQQSGPELVKPGASVKISCKTSGYTFTDFNMDWVKQSHGKSLEWIGYINPNNGDAAYNQKFKSKATLTVDKSSNTAYMELHSLTSDDSAVYYCARWGWAFAYWGQGTLVTVSA VL: DIVMTQSHKIMSTSVGDRVSITCKASQDVKTAVAWYQQKPGQSPKLLIYATSYRYTGVPDRFTGSGSGTDFTFTISTVQAEDLAVYYCQQHYSIPYTFGGGTKLEIK"
  unitsText: "nM"
  IC50: 1.57
